All values here come from patent US8895549B2.

Attribute: IC50
# target.system: PI3Kβ (complex of human p110β and human p85α) (Homo sapiens (Human))
# Sequence (P42338 whole entry, the tested form may be a part): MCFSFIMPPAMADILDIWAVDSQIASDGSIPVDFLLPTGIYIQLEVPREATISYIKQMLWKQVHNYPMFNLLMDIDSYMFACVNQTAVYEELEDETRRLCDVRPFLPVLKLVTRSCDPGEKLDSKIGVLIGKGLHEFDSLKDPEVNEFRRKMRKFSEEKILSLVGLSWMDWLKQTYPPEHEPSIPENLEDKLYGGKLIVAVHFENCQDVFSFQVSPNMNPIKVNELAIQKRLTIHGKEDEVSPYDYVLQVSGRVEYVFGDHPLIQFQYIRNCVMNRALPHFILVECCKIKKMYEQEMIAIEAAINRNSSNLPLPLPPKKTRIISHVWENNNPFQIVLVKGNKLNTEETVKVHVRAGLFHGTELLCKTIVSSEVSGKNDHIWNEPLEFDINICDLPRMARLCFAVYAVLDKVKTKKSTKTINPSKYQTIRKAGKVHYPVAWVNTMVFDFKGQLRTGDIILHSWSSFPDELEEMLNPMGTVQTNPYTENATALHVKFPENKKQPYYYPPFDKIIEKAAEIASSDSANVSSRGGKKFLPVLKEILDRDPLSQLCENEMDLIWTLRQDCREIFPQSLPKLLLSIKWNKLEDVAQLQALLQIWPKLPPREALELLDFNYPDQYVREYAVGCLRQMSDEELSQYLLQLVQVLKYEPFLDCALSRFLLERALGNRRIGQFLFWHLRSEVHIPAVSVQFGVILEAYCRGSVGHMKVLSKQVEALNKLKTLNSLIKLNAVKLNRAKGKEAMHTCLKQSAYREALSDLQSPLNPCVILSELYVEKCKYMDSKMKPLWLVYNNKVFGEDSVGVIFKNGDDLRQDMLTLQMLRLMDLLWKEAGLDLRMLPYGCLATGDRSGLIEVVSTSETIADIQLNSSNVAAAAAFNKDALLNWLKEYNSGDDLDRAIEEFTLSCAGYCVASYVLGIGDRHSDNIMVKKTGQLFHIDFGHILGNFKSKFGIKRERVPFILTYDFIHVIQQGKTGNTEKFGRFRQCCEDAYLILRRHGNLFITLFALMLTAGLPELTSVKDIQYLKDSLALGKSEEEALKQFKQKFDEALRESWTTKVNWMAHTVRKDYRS
# Sequence (P27986 whole entry partner, the tested form may be a part): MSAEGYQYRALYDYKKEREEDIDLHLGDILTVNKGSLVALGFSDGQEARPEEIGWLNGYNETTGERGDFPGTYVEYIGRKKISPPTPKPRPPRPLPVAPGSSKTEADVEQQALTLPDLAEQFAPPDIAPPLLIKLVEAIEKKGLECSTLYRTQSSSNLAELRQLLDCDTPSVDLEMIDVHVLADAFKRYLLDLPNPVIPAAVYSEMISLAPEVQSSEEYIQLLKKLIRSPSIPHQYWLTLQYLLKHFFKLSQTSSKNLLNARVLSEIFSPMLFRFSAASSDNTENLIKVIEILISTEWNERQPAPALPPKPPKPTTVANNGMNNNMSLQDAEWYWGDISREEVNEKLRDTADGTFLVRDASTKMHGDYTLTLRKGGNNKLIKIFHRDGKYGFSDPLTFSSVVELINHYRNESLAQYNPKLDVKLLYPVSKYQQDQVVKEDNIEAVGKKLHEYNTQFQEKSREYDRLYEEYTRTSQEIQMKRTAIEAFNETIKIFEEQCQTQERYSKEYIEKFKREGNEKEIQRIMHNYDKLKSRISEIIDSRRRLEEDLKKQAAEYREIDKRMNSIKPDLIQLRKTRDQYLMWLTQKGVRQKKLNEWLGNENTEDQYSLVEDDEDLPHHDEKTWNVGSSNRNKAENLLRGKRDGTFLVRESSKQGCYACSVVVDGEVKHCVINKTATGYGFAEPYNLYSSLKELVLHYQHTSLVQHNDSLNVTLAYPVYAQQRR
# procedure.summary: PI3Kβ kinase assay (HTRF-based PI3K inhibition assay);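 also: Kinase-made PIP3 detected by HTRF, displacing biotinylated PIP3 tracer from a complex of Europium anti-GST antibody, GST-fused PH domain and Streptavidin-APC, read as Europium-to-APC energy transfer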
# recorded.conditions: 10 μM ATP, 10 μM PIP2, 20 min at 22° C.; read-out: average IC50 in the PI3K beta biochemical assay

Examples with their reported IC50 follow.
* COc1c(OC[C@H](O)CN2CCCCC2)ccc2c1N=C(NC(=O)c1cccnc1)N1CCN=C21 | 10 to 50 nM
* COc1c(OCC(O)CN2CCSCC2)ccc2c1N=C(NC(=O)c1cccnc1)N1CCN=C21 (stereo not shown) | > 50 nM
* COc1c(OC[C@H](O)CN2C[C@@H](C)O[C@@H](C)C2)ccc2c1N=C(NC(=O)c1cccnc1C)N1CCN=C21 | 10 to 50 nM
* COc1c(OC[C@H](O)CN2C[C@@H](C)O[C@@H](C)C2)ccc2c1N=C(NC(=O)c1cncs1)N1CCN=C21 | 10 to 50 nM
* COc1c(OC[C@H](O)CN(C(C)C)C(C)C)ccc2c1N=C(NC(=O)c1cccnc1C)N1CCN=C21 | 10 to 50 nM
* COc1c(OC[C@H](O)CN2CCCC2)ccc2c1N=C(NC(=O)c1scnc1C)N1CCN=C21 | < 10 nM

## Input Recorded IC50 for "COc1c(OC[C@H](O)CN2CCCC2)ccc2c1N=C(NC(=O)c1cncnc1)N1CCN=C21" with PI3Kβ (complex of human p110β and human p85α) (Homo sapiens (Human)), please?
## Output 10 to 50 nM
